Each recorded value in this set is attributed to patent US7074824B2.

assay: Solubility of β-lapachone in common solvent systems used for intravenous delivery; format: physicochemical; details: Poloxamer 20%, aqueous with cosolvent or surfactant or cyclodextrin; read-out: β-lapachone Solubility, Undiluted
OUTCOME MEASURE: solubility
Give the value; after it, write the unit.

Provide only the value of recorded solubility for CC1(C)CCC2=C(O1)c1ccccc1C(=O)C2=O [β-lapachone]
2040 µg/mL

* * *

Tested on: BxPC-3
Test: MTS growth inhibition assay
Assay type: cell-based, human
Conditions: BxPC-3 pancreas, Exp 2; read-out: Growth inhibitory activity (50% effective concentration, IC50)
Method: A2780 and A2780/CP (ovarian); MCF-7 (breast); HT-29 (colon); BxPC-3 (pancreas); and A549 (lung). The human tumor cell lines (purchased from ATCC, Rockville, Md.) were cultured at 37° C. […] Nova Tech, Grand Island, N.Y.) containing 10% fetal bovine serum (FBS, Nova Tech). […] The cell concentration is then determined by measuring the absorbance of the formazan product at 490 nm. Growth inhibition, expressed as IC50, is calculated relative to vehicle-treated control cells.
Assign IC50 to each entry below.
Give the value, in units of µM, as a plain number.

Provide only the value of recorded IC50 for CC(=O)OC1CC(C)(C)OC2=C1C(=O)C(=O)c1ccccc12 (centres unmarked)
13.5

Provide only the value of recorded IC50 for CC1OC2=C(C(=O)C(=O)c3ccccc32)C1(C)C (centres unmarked)
8.4

* * *

tested on: HT-29; test: MTS growth inhibition assay; format: cell-based, human; details: HT-29 colon, Mean ± SE of 3 experiments; read-out: Growth inhibitory activity (50% effective concentration, IC50)
OUTCOME MEASURE: IC50 (µM)
Give the value, in units of µM, as a plain number.

Provide only the value of recorded IC50 for CC(=O)OC1CC(C)(C)OC2=C1C(=O)C(=O)c1ccccc12 (centres unmarked)
8.25

Provide only the value of recorded IC50 for CC1OC2=C(C(=O)C(=O)c3ccccc32)C1(C)C (centres unmarked)
14

Provide only the value of recorded IC50 for CC1(C)CC(O)C2=C(O1)c1ccccc1C(=O)C2=O (stereo not drawn) [CO-503, 4-hydroxy β-lapachone]
12.1

* * *

assay: Solubility of β-lapachone in common solvent systems used for intravenous delivery; type: physicochemical; details: PEG 400 diluted 5X in 0.9% saline, aqueous with cosolvent or surfactant or cyclodextrin; PEG 400, diluted in 0.9% saline; read-out: β-lapachone Solubility, 5X dilution
OUTCOME MEASURE: solubility (µg/mL)
Give the value, in units of µg/mL, as a plain number.

Provide only the value of recorded solubility for `CC1(C)CCC2=C(O1)c1ccccc1C(=O)C2=O`
140

* * *

assay: Solubility of β-lapachone in common solvent systems used for intravenous delivery; type: physicochemical; details: Trappsol 20%, aqueous with cosolvent or surfactant or cyclodextrin; read-out: β-lapachone Solubility, Undiluted
OUTCOME MEASURE: solubility (µg/mL)
Give the value, in units of µg/mL, as a plain number.

Provide only the value of recorded solubility for CC1(C)CCC2=C(O1)c1ccccc1C(=O)C2=O [β-lapachone]
1460

* * *

experiment: Solubility of β-lapachone in common solvent systems used for intravenous delivery; format: physicochemical; settings: EtOH 76%, organic solvent or mixture; read-out: β-lapachone Solubility, Undiluted
OUTCOME MEASURE: solubility (mg/mL)
Give the value, in units of mg/mL, as a plain number.

Provide only the value of recorded solubility for CC1(C)CCC2=C(O1)c1ccccc1C(=O)C2=O [β-lapachone]
10.7

* * *

tested on: A2780CP; test: MTS growth inhibition assay; format: cell-based, human; conditions: Homo sapiens, A2780C/P, read-out: Growth inhibitory activity (50% effective concentration, IC50), A2780CP (resistant) ovarian, Exp 1
OUTCOME MEASURE: IC50 (µM)
Give the value, in units of µM, as a plain number.

Provide only the value of recorded IC50 for `CC1(C)CCC2=C(O1)c1ccccc1C(=O)C2=O`
4.47

* * *

test system: BxPC-3; assay: MTS growth inhibition assay; format: cell-based, human; conditions: Homo sapiens, BXPC-3, read-out: Growth inhibitory activity (50% effective concentration, IC50), BxPC-3 pancreas, Exp 1
OUTCOME MEASURE: pIC50
Quick note: pIC50 values are minus log10 of concentrations in mol/L.

Provide only the value of recorded pIC50 for `CC1(C)CCC2=C(O1)c1ccccc1C(=O)C2=O`
4.94

* * *

test: Solubility of β-lapachone in common solvent systems used for intravenous delivery; assay type: physicochemical; conditions: Propylene Glycol, organic solvent or mixture; read-out: β-lapachone Solubility, Undiluted
OUTCOME MEASURE: solubility (µg/mL)
Give the value, in units of µg/mL, as a plain number.

Provide only the value of recorded solubility for CC1(C)CCC2=C(O1)c1ccccc1C(=O)C2=O [β-lapachone]
8780

* * *

assay: Solubility of β-lapachone in common solvent systems used for intravenous delivery; format: physicochemical; conditions: PEG 400, organic solvent or mixture; read-out: β-lapachone Solubility, Undiluted
OUTCOME MEASURE: solubility (mg/mL)
Give the value, in units of mg/mL, as a plain number.

Provide only the value of recorded solubility for CC1(C)CCC2=C(O1)c1ccccc1C(=O)C2=O [β-lapachone]
11.7

* * *

Assign pIC50 to each entry below.
test system: BxPC-3; assay: MTS growth inhibition assay; format: cell-based, human; conditions: BxPC-3 pancreas, Exp 3; read-out: Growth inhibitory activity (50% effective concentration, IC50)
Quick note: pIC50 values are minus log10 of concentrations in mol/L.

Provide only the value of recorded pIC50 for CC(=O)OC1CC(C)(C)OC2=C1C(=O)C(=O)c1ccccc12 (centres unmarked)
5.63

Provide only the value of recorded pIC50 for CC1OC2=C(C(=O)C(=O)c3ccccc32)C1(C)C (centres unmarked)
5.04

* * *

experiment: Solubility of β-lapachone in common solvent systems used for intravenous delivery; assay type: physicochemical; conditions: Poloxamer 20% diluted 5X in 0.9% saline, aqueous with cosolvent or surfactant or cyclodextrin; Poloxamer 20%, diluted in 0.9% saline; read-out: β-lapachone Solubility, 5X dilution
OUTCOME MEASURE: solubility (µg/mL)
Give the value, in units of µg/mL, as a plain number.

Provide only the value of recorded solubility for CC1(C)CCC2=C(O1)c1ccccc1C(=O)C2=O [β-lapachone]
33.1

* * *

test system: A2780CP; assay: MTS growth inhibition assay; format: cell-based, human; conditions: A2780CP (resistant) ovarian, Exp 3; read-out: Growth inhibitory activity (50% effective concentration, IC50)
OUTCOME MEASURE: IC50 (µM)
Give the value, in units of µM, as a plain number.

Provide only the value of recorded IC50 for CC(=O)OC1CC(C)(C)OC2=C1C(=O)C(=O)c1ccccc12 (stereo not drawn) [CO-504, 4-acetoxy β-lapachone]
2.56

Provide only the value of recorded IC50 for CC1(C)CC(O)C2=C(O1)c1ccccc1C(=O)C2=O (stereo not drawn) [CO-503, 4-hydroxy β-lapachone]
14.8

Provide only the value of recorded IC50 for CC1OC2=C(C(=O)C(=O)c3ccccc32)C1(C)C (centres unmarked) [CO-506]
1.53

* * *

system: HT-29; assay: MTS growth inhibition assay; assay type: cell-based, human; conditions: Homo sapiens; HT-29 colon, Exp 1; read-out: Growth inhibitory activity (50% effective concentration, IC50)
OUTCOME MEASURE: IC50

Provide only the value of recorded IC50 for `CCCCCC(=O)OC1=CC(=O)C(=O)c2ccccc21`
> 20 µM

* * *

tested on: A2780CP; assay: MTS growth inhibition assay; type: cell-based, human; settings: Homo sapiens, A2780C/P, read-out: Growth inhibitory activity (50% effective concentration, IC50), A2780CP (resistant) ovarian, Exp 2
OUTCOME MEASURE: pIC50
Quick note: pIC50 values are minus log10 of concentrations in mol/L.

# lookup: A2780CP pIC50, key = `CC1(C)CCC2=C(O1)c1ccccc1C(=O)C2=O`
5.79

* * *

tested on: A2780; assay: MTS growth inhibition assay; format: cell-based, human; settings: A2780 (sensitive) ovarian, Exp 2, 4 h treatment + 24 h drug-free; read-out: Growth inhibitory activity (50% effective concentration, IC50)
Assign IC50 to each entry below.

Provide only the value of recorded IC50 for CCCCCC(=O)OC1=CC(=O)C(=O)c2ccccc21 [CO-507, 4-hexanoyloxy-1,2-naphthoquinone]
> 20 µM

Provide only the value of recorded IC50 for CC(=O)OC1CC(C)(C)OC2=C1C(=O)C(=O)c1ccccc12 (stereo not drawn) [CO-504, 4-acetoxy β-lapachone]
1.6 µM

Provide only the value of recorded IC50 for CC1(C)CC(=O)C2=C(O1)c1ccccc1C(=O)C2=O [CO-505]
> 20 µM

Provide only the value of recorded IC50 for CC1(C)CC(O)C2=C(O1)c1ccccc1C(=O)C2=O (stereo not drawn) [CO-503, 4-hydroxy β-lapachone]
5.29 µM

Provide only the value of recorded IC50 for CC1OC2=C(C(=O)C(=O)c3ccccc32)C1(C)C (centres unmarked) [CO-506]
4.79 µM
